Here the recorded MIC is given for each entry.
Test system: Pseudomonas aeruginosa
PROTOCOL: Antibacterial activity against Pseudomonas aeruginosa PAO1 harboring mmsA::ISphoA/haha mutation by Etest
Type: functional
ATTRIBUTE MEASURED: MIC

compound="C[C@@H](O)[C@H]1C(=O)N2C(C(=O)O)=C(SCCNC=N)C[C@H]12 [IMIPENEM ANHYDROUS]" attribute_measured=MIC experimental_value="1 µg/mL"
compound=CC(C)(O/N=C(\C(=O)N[C@@H]1C(=O)N2C(C(=O)[O-])=C(C[n+]3ccccc3)CS[C@H]12)c1csc(N)n1)C(=O)O attribute_measured=MIC experimental_value="1 µg/mL"
compound=C[C@H]1COc2c(N3CCN(C)CC3)c(F)cc3c(=O)c(C(=O)O)cn1c23.C[C@H]1COc2c(N3CCN(C)CC3)c(F)cc3c(=O)c(C(=O)O)cn1c23.O attribute_measured=MIC experimental_value="0.25 µg/mL"
compound=NC[C@H]1O[C@H](O[C@H]2[C@H](O)[C@@H](O[C@H]3O[C@H](CO)[C@@H](O)[C@H](N)[C@H]3O)[C@H](N)C[C@@H]2N)[C@H](N)C[C@@H]1O attribute_measured=MIC experimental_value="1.5 µg/mL"

====

Here the recorded MIC is given for each entry.
Tested on: Pseudomonas aeruginosa
PROTOCOL: Antibacterial activity against Pseudomonas aeruginosa PAO1 harboring gabD::ISphoA/haha mutation by Etest
Format: functional
ATTRIBUTE MEASURED: MIC (µg/mL)

compound="NC[C@H]1O[C@H](O[C@H]2[C@H](O)[C@@H](O[C@H]3O[C@H](CO)[C@@H](O)[C@H](N)[C@H]3O)[C@H](N)C[C@@H]2N)[C@H](N)C[C@@H]1O [TOBRAMYCIN]" attribute_measured=MIC experimental_value=2
compound="C[C@@H](O)[C@H]1C(=O)N2C(C(=O)O)=C(SCCNC=N)C[C@H]12 [IMIPENEM ANHYDROUS]" attribute_measured=MIC experimental_value=1.5
compound="CC(C)(O/N=C(\\C(=O)N[C@@H]1C(=O)N2C(C(=O)[O-])=C(C[n+]3ccccc3)CS[C@H]12)c1csc(N)n1)C(=O)O [CEFTAZIDIME]" attribute_measured=MIC experimental_value=1
compound="C[C@H]1COc2c(N3CCN(C)CC3)c(F)cc3c(=O)c(C(=O)O)cn1c23.C[C@H]1COc2c(N3CCN(C)CC3)c(F)cc3c(=O)c(C(=O)O)cn1c23.O [LEVOFLOXACIN]" attribute_measured=MIC experimental_value=0.25
